Answer each item with its documented melting point.

input: Return reported melting point; argument: CNC(=O)c1cc(Cl)cc(Cl)c1NC(=O)c1cc(C(F)(F)F)nn1-c1ncccc1Cl
output: 155 to 157 °C

input: Return reported melting point; argument: CCNC(=O)c1cc(Br)cc(Br)c1NC(=O)c1cc(Br)nn1-c1ncccc1Cl
output: 196 to 197 °C

input: Return reported melting point; argument: Cc1cc(Br)cc(C(=O)NC(C)C)c1NC(=O)c1cc(Cl)nn1-c1ncccc1Cl
output: 152 to 153 °C

input: Return reported melting point; argument: Cc1cc(I)cc(C(=O)NC(C)C)c1NC(=O)c1cc(Br)nn1-c1ncccc1Cl
output: 191 to 192 °C
